# Test system: HCT-116 human colon carcinoma cells
# assay-comment: Viability assay (LDH release), HCT-116
# Format: cell-based
# assay-setup: from concentration–response curves
measured-metric: IC50 (µM)
Numeric only. Scale: µM

{"smiles": "O=c1c2cc(Cl)ccc2[nH]c(=S)n1-c1ccc([N+](=O)[O-])cc1", "test-result": 324}

Next:
Look up and report measured IC50 for this entry: O=c1c2cc(Cl)ccc2[nH]c(=S)n1-c1cccc(C(F)(F)F)c1
298

###

# assayed-target: α-amylase
# assay-comment: In vitro α-amylase (AA) inhibition assay
# assay-setup: read-out: Mean IC50 α-Amylase (AA); mean ± SD of three replicates
IC50 strictly less than 400 µM = rule met. Otherwise rule not met.

Worked examples, 8 molecules total:
{"smiles": "O=c1c2cc(Cl)ccc2[nH]c(=S)n1-c1ccc(C(F)(F)F)cc1", "assayed-target": "α-amylase", "class-label": "rule not met"}
{"smiles": "COc1cc2nc(SCc3ccc(Cl)cc3)n(-c3ccc([N+](=O)[O-])cc3)c(=O)c2cc1OC", "assayed-target": "α-amylase", "class-label": "rule met"}
{"smiles": "O=c1c2cc(Br)ccc2nc(SCc2ccc(Cl)cc2)n1-c1cccc(C(F)(F)F)c1", "assayed-target": "α-amylase", "class-label": "rule met"}
{"smiles": "COc1cc2[nH]c(=S)n(-c3cccc(C(F)(F)F)c3)c(=O)c2cc1OC", "assayed-target": "α-amylase", "class-label": "rule met"}
{"smiles": "O=c1c2cc(Cl)ccc2nc(SCc2ccc(Cl)cc2)n1-c1ccc(C(F)(F)F)cc1", "assayed-target": "α-amylase", "class-label": "rule met"}
{"smiles": "COc1ccc(Br)c(CSc2nc3ccc(Cl)cc3c(=O)n2-c2ccc([N+](=O)[O-])cc2)c1", "assayed-target": "α-amylase", "class-label": "rule met"}
{"smiles": "O=c1c2cc(Br)ccc2[nH]c(=S)n1-c1ccc(C(F)(F)F)cc1", "assayed-target": "α-amylase", "class-label": "rule not met"}
{"smiles": "O=c1c2cc(Cl)ccc2[nH]c(=S)n1-c1cccc(C(F)(F)F)c1", "assayed-target": "α-amylase", "class-label": "rule met"}

Could you please tell me whether IC50 recorded for O=c1c2cc(Br)ccc2[nH]c(=S)n1-c1ccc([N+](=O)[O-])cc1 is less than 400 µM?
rule not met

Could you please tell me whether IC50 recorded for O=c1c2cc(Br)ccc2[nH]c(=S)n1-c1cccc(C(F)(F)F)c1 is less than 400 µM?
rule not met

Could you please tell me whether IC50 recorded for O=c1c2cc(Br)ccc2nc(SCc2cccc([N+](=O)[O-])c2)n1-c1ccc([N+](=O)[O-])cc1 is less than 400 µM?
rule not met

Could you please tell me whether IC50 recorded for O=c1c2cc(Cl)ccc2[nH]c(=S)n1-c1ccc([N+](=O)[O-])cc1 is less than 400 µM?
rule met

###

In this section, each of the compounds is paired with its reported inhibition at 100 µg/mL.
# assayed-target: purified recombinant human LDHA protein (Homo sapiens)
# assay-comment: Lactate dehydrogenase A (LDHA) inhibitory assay
# Format: biochemical
# assay-setup: at 0.1 mg/mL; read-out: LDHA mean % inhibition ± SD
Numeric only. Scale: %

{"compound": "O=c1c2cc(Cl)ccc2[nH]c(=S)n1-c1cccc(C(F)(F)F)c1 [Compound 3a]", "measured-metric": "inhibition at 100 µg/mL", "test-result": 53.5}
{"compound": "COc1cc2[nH]c(=S)n(-c3ccc([N+](=O)[O-])cc3)c(=O)c2cc1OC [Compound 3h]", "measured-metric": "inhibition at 100 µg/mL", "test-result": 29.9}
{"compound": "COc1ccc(Br)c(CSc2nc3ccc(Br)cc3c(=O)n2-c2ccc(C(F)(F)F)cc2)c1 [Compound 5e]", "measured-metric": "inhibition at 100 µg/mL", "test-result": 15.2}
{"compound": "O=c1c2cc(Br)ccc2nc(SCc2cccc([N+](=O)[O-])c2)n1-c1ccc([N+](=O)[O-])cc1 [Compound 5g]", "measured-metric": "inhibition at 100 µg/mL", "test-result": 15.8}
{"compound": "COc1cc2nc(SCc3cccc([N+](=O)[O-])c3)n(-c3cccc(C(F)(F)F)c3)c(=O)c2cc1OC [Compound 5c]", "measured-metric": "inhibition at 100 µg/mL", "test-result": 8.55}
{"compound": "COc1ccc(Br)c(CSc2nc3ccc(Cl)cc3c(=O)n2-c2ccc([N+](=O)[O-])cc2)c1 [Compound 5f]", "measured-metric": "inhibition at 100 µg/mL", "test-result": 31.9}
{"compound": "O=c1c2cc(Cl)ccc2[nH]c(=S)n1-c1ccc([N+](=O)[O-])cc1 [Compound 3f]", "measured-metric": "inhibition at 100 µg/mL", "test-result": 21.5}
{"compound": "O=c1c2cc(Br)ccc2[nH]c(=S)n1-c1ccc([N+](=O)[O-])cc1 [Compound 3g]", "measured-metric": "inhibition at 100 µg/mL", "test-result": 68.2}

State recorded inhibition at 100 µg/mL with purified recombinant human LDHA protein (Homo sapiens), entry COc1cc2nc(SCc3ccc(Cl)cc3)n(-c3ccc([N+](=O)[O-])cc3)c(=O)c2cc1OC [Compound 5h] , no comment.
15.3

State recorded inhibition at 100 µg/mL with purified recombinant human LDHA protein (Homo sapiens), entry O=c1c2cc(Cl)ccc2nc(SCc2ccccc2F)n1-c1cccc(C(F)(F)F)c1 [Compound 5a] , no comment.
24

State recorded inhibition at 100 µg/mL with purified recombinant human LDHA protein (Homo sapiens), entry O=c1c2cc(Br)ccc2nc(SCc2ccc(Cl)cc2)n1-c1cccc(C(F)(F)F)c1 [Compound 5b] , no comment.
14.5

State recorded inhibition at 100 µg/mL with purified recombinant human LDHA protein (Homo sapiens), entry COc1cc2[nH]c(=S)n(-c3cccc(C(F)(F)F)c3)c(=O)c2cc1OC [Compound 3c] , no comment.
17.8

State recorded inhibition at 100 µg/mL with purified recombinant human LDHA protein (Homo sapiens), entry O=c1c2cc(Br)ccc2[nH]c(=S)n1-c1ccc(C(F)(F)F)cc1 [Compound 3e] , no comment.
22.1

State recorded inhibition at 100 µg/mL with purified recombinant human LDHA protein (Homo sapiens), entry O=c1c2cc(Br)ccc2[nH]c(=S)n1-c1cccc(C(F)(F)F)c1 [Compound 3b] , no comment.
29.1

State recorded inhibition at 100 µg/mL with purified recombinant human LDHA protein (Homo sapiens), entry O=c1c2cc(Cl)ccc2[nH]c(=S)n1-c1ccc(C(F)(F)F)cc1 [Compound 3d] , no comment.
33.5

// data source = paper PMC10610505
